Where do the numbers come from? From paper PMC10765375.

I'd be grateful if you could share measured % inhibition at 3h, Ins(1,2,3,4,5)P5 substrate for these entries.
# Tgt: StITPK1 (Solanum tuberosum, UniProt A4H2J0)
# Sequence (A4H2J0 entry or part of it): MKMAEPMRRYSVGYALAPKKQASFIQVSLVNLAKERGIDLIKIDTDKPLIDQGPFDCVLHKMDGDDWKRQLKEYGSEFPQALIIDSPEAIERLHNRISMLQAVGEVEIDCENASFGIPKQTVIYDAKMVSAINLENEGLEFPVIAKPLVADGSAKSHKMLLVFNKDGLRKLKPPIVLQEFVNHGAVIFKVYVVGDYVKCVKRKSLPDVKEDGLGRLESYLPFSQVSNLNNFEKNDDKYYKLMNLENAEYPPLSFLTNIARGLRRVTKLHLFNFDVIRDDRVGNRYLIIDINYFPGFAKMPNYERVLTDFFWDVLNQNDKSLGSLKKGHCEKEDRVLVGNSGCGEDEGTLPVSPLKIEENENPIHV
# Assay Remarks: Competition/inhibition of Ins(1,2,3,4,5)P5 5-phospho-kinase activity, HPLC
# Format: biochemical
# Experimental Parameters: 0.5 mM competing substrate/inhibitor, 1 mM Ins(1,2,3,4,5)P5, 3h experiment
State the answer as a number, implicitly in %.

Prompt: Could you share which % inhibition at 3h, Ins(1,2,3,4,5)P5 substrate value was measured for O=C(CP(=O)(O)O)NC1C(OP(=O)(O)O)C(OP(=O)(O)O)C(OP(=O)(O)O)C(OP(=O)(O)O)C1OP(=O)(O)O (centres unmarked) ?
Completion: 43

Prompt: // query: O=P(O)(O)CP(=O)(O)OC1C(OP(=O)(O)O)C(OP(=O)(O)O)C(OP(=O)(O)O)C(OP(=O)(O)O)C1OP(=O)(O)O (centres unmarked) [3-PCP-InsP5]
Completion: 78

Prompt: Another: O=C(O)CP(=O)(O)O[C@H]1[C@H](OP(=O)(O)O)[C@@H](OP(=O)(O)O)[C@@H](OP(=O)(O)O)[C@@H](OP(=O)(O)O)[C@@H]1OP(=O)(O)O
Completion: 44

Prompt: Now consider O=P(O)(O)O[C@H]1[C@@H](OP(=O)(O)O)[C@H](OP(=O)(O)O)[C@@H](OP(=O)(O)OP(=O)(O)O)[C@H](OP(=O)(O)O)[C@H]1OP(=O)(O)O and answer again.
Completion: 82

Prompt: Try this molecule next: O=C(NC1C(OP(=O)(O)O)C(OP(=O)(O)O)C(OP(=O)(O)O)C(OP(=O)(O)O)C1OP(=O)(O)O)C(F)(F)P(=O)(O)O (centres unmarked)
Completion: 67

---

# Tgt: AtITPK1
# Construct: made in house
# Assay Remarks: Kinase assay with ATP, HPLC of products
# Assay type: biochemical, Arabidopsis thaliana
# Experimental Parameters: with ATP, HPLC
Observation Type: kinase substrate status

- O=P(O)(O)CP(=O)(O)O[C@@H]1[C@H](OP(=O)(O)O)[C@H](OP(=O)(O)O)[C@@H](OP(=O)(O)O)[C@H](OP(=O)(O)O)[C@H]1OP(=O)(O)O: better substrates
- O=P(O)(O)CP(=O)(O)OC1C(OP(=O)(O)O)C(OP(=O)(O)O)C(OP(=O)(O)O)C(OP(=O)(O)O)C1OP(=O)(O)O (stereo not drawn): better substrates

---

# Tgt: StITPK1 (Solanum tuberosum, UniProt A4H2J0)
# Assay Remarks: Fluorescence polarization displacement of 2-FAM-InsP5
# Format: binding
# Experimental Parameters: 2 nM 2-FAM-InsP5, 50 nM StITPK1, pH 6.5; Cheng-Prusoff with Kd 48 nM; read-out: Ki for displacement of 2-FAM-InsP5
Rule: measured Ki below 300 nM gets 1.0; anything equal to or greater than 300 nM gets 0.0.

Prompt: Dear colleague, could you confirm whether Ki of O=P(O)(O)CP(=O)(O)OC1C(OP(=O)(O)O)C(OP(=O)(O)O)C(OP(=O)(O)O)C(OP(=O)(O)O)C1OP(=O)(O)O (stereo not drawn) falls below 300 nM? Thanks.
Completion: 1.0

Prompt: Another: O=P(O)(O)O[C@@H]1[C@@H](OP(=O)(O)O)[C@H](OP(=O)(O)O)[C@@H](O)[C@H](OP(=O)(O)O)[C@@H]1OP(=O)(O)O
Completion: 0.0

Prompt: Next up: O=P(O)(O)O[C@@H]1[C@H](OP(=O)(O)O)[C@H](OP(=O)(O)O)[C@@H](O)[C@H](OP(=O)(O)O)[C@H]1OP(=O)(O)O
Completion: 1.0

Prompt: Query O=P(O)(O)O[C@H]1[C@@H](OP(=O)(O)O)[C@H](OP(=O)(O)O)[C@@H](OP(=O)(O)OP(=O)(O)O)[C@H](OP(=O)(O)O)[C@H]1OP(=O)(O)O next
Completion: 1.0

Prompt: // next record O=P(O)(O)O[C@@H]1[C@@H](OP(=O)(O)O)[C@H](OP(=O)(O)O)[C@@H](O)[C@@H](O)[C@H]1OP(=O)(O)O
Completion: 0.0

Prompt: // same read-out, input: O=P(O)(O)O[C@H]1[C@H](OP(=O)(O)O)[C@@H](OP(=O)(O)O)[C@@H](O)[C@@H](O)[C@@H]1OP(=O)(O)O
Completion: 0.0
